# Test system: regeneration of mouse back hair
# PROTOCOL SUMMARY: Test of inhibiting regeneration of mouse back hair
# Assay type: in vivo
# CONDITION CONTEXT: 1 mM in 80% ethanol, applied twice a day 100 μl/time to shaved back, C3H mice, vs solvent control
PROPERTY LABEL: Percent inhibition of hair growth after 3 weeks from shaving (%)
The reply should consist of the numeric value with the unit placed after it.

Some solved entries appear below for comparison.
State the recorded Percent inhibition of hair growth after 3 weeks from shaving (%) for this entry: CC(C)CC(NP(=O)(O)CCc1ccccc1)C(=O)NC(Cc1c[nH]c2ccccc12)C(=O)O (centres unmarked) 59.1%

Report Percent inhibition of hair growth after 3 weeks from shaving (%) for CC(C)CC(NP(=O)(O)OC1OC(C)C(O)C(O)C1O)C(=O)NC(Cc1c[nH]c2ccccc12)C(=O)O (centres unmarked) please. 58.7%

Requested read-out: Percent inhibition of hair growth after 3 weeks from shaving (%). Entry: O=C(O)CCNC(=O)C(CS)Cc1ccccc1 (centres unmarked) 59.7%

Record request: Percent inhibition of hair growth after 3 weeks from shaving (%) value, item CC(C)CC(NC(=O)C(CC(C)C)NP(=O)(O)CCc1ccccc1)C(=O)O (centres unmarked) 64.8%

Continuing:
// query Percent inhibition of hair growth after 3 weeks from shaving (%) value for entry O=C(O)CNC(=O)C(CS)Cc1ccccc1 (centres unmarked) 71.6%

Values from patent US7041658B2
